# Test system: U251 CNS
# assay_protocol: NCI tumour cell line growth inhibition, 48 h
As shown below, each of these compounds has a reported TGI value.
Just the number in µM, nothing appended.

Q. TGI for `Cc1cc(Cl)n2c(nc3ccccc32)c1C#N` ?
A. 3.17

Q. I'd like to know its TGI. The compound in question is CC(C)c1ccc2c(c1)CCC1C(C)(C)[C@@H](O)CC[C@]21C (stereo not given in full)
A. 52.2

Q. Name the reported TGI value associated with the compound CC1=NN(c2cccc(Cl)c2)C2(C1)C(Cl)C(=O)N2c1nc2ccccc2s1 (stereo not given)
A. 72.5

Note: attention shifts to another entry.
Q. Item `Cc1cc2c(cc1-c1cc3c(cc1C)C(C(C)C)=C(O)C(=O)/C3=C\Nc1nc(-c3ccccc3)cs1)/C(=C/Nc1nc(-c3ccccc3)cs1)C(=O)C(O)=C2C(C)C` has what recorded TGI?
A. 27.5

###

# System: A549 NSCLC
# assay_protocol: NCI tumour cell line growth inhibition, 48 h
test_readout: TGI

Sample answers from the record:
Q. Form field: reported TGI of COc1cc([C@@H]2c3cc4c(cc3[C@H](OC3OC5COC(c6ccccc6)OC5C(O)C3O)[C@H]3COC(=O)[C@H]23)OCO4)cc(OC)c1OC (stereo partly specified)
A. 5.68 µM

Q. State the recorded TGI for this entry: `COCn1c(C)c(C)c2c(=O)oc(=O)[nH]c21`
A. > 100 µM

Q. I am curious: what TGI value has been reported for `COc1c(-c2cc(C)c(Cl)c(=O)[nH]2)c(O)c(OC)c2occc12` ?
A. > 100 µM

Q. Look up TGI for this compound: `CC(=O)Nc1ccc2c(C(=O)O)c(C)c(=O)[nH]c2n1`
A. > 100 µM

Q. Looking for the measured TGI of `Nn1c(Cc2ccc(Cl)cc2)n[nH]c1=O` , can you help?
A. > 100 µM

Next:
Q. Consider the compound CCOC(=O)C1=CN=C2C(=O)N(c3ccccc3)N(C)C2(C)C1=N (stereo unspecified) and give its measured TGI.
A. > 100 µM

Q. Which TGI value belongs to `N#Cc1c(N)nn(C(=O)c2ccc(NC(=O)c3ccccn3)cc2)c1-c1ccc(Cl)cc1` ?
A. 12.8 µM

Q. Item under review: `O=C(CCc1cccc(O)c1)NCCc1cccc(O)c1` . Reported TGI?
A. > 100 µM

Q. Name the reported TGI value associated with the compound `Cc1ccccc1N=C(N)NC#N`
A. > 100 µM

Q. Consider the compound `O=c1[nH]nc(-c2ccccc2)c(-c2ccccc2)c1-n1nc(-c2ccccc2)c2ccccc2c1=O` and give its measured TGI.
A. > 100 µM

Q. For the compound `CCNC(=S)N/N=C/c1cc(OC)ccc1O` , what TGI is on record?
A. > 100 µM

###

# Test system: MDA-MB-231 breast
# assay_protocol: NCI tumour cell line growth inhibition, 48 h
test_readout: TGI

Known TGI results, listed for orientation:
Q. Would you kindly share the measured TGI for COc1ccc(/C=N\N2CC(=O)N3C4C=CC(CC4)N3C2=O)cc1 (stereo not given) ?
A. > 100 µM

Q. I'd like to know its TGI. The molecule in question is `C[C@]12CC[C@H]3[C@@H](CCC4=CC(=O)C=C[C@@]43O)[C@@H]1CCC2=O`
A. > 100 µM

Q. Recorded TGI of `O=[N+]([O-])C(/C(Cl)=C(/Cl)N1CCOCC1)=C1\NCCO1` , please.
A. > 100 µM

***
Q. Item COc1ccc(C(=O)CC2(O)C(=O)Nc3c(Cl)ccc(Cl)c32)cc1 (stereo not given) has what recorded TGI?
A. > 92.4 µM

Q. Name the recorded TGI for COc1cc([C@@H]2c3cc4c(cc3[C@H](OC3OC5COC(c6ccccc6)OC5C(O)C3O)[C@H]3COC(=O)[C@H]23)OCO4)cc(OC)c1OC (stereo not given in full) .
A. 29 µM
